test-system: MBP-yRps14 (Saccharomyces cerevisiae, UniProt P06367 1-137)
method-notes: filter binding; 6 mM Mg2+, 150 mM KCl, E. coli tRNA 60 ug/ml; Filter binding: 30 mM Tris-HCl pH 8.0, 150 mM KCl, 6 mM MgCl2, 60 ug/ml E. coli tRNA, 20 C, 15 min, 10 fmol RNA (Fig S4D: 20 mM HEPES pH 8.0, 300 mM KCl, 5 mM MgCl2, 20 C); pull-down: IP buffer (300 mM KCl, 50 mM Hepes pH 7.5, 0.5 mM EDTA, 1 mM DTT, 10% glycerol as given for bead preparation), 5 mM MgCl2 where stated
run-conditions: protein: recombinant; tags: MBP (pETM41; His-tag purification); (radioactively labeled); hairpin
pKd: −log10 of the molar value.
measured-property: pKd

# binder, experimental-result
data = [
    ("GGGAGUAUUCAAUUGUCAGAGGUGAAAUUCUUGGAUUUAUUGAAGAGU (structured_RNA) [Helix 23 of 18S rRNA (H23)]", 5.82),
]
